B1: Transcription elongation factor A N-terminal and central domain-containing protein, residues 30 to 77; numbered along this chain, Q8N8B7 (parent)
chain: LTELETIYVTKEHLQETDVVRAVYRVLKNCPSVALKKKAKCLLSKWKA

Variants of: B1
Experiment: abundance fitness (aPCA) (normalised: wild type 0, dead -1); higher = more abundant; growth selection in yeast, the domain comes from the species named
Details: Homo sapiens
Classes are defined on abundance fitness with ranges L = under -0.4, M = from -0.4 up to -0.1, H = -0.1 and over

A22V
M
L42A
L
V26Y
H
E16D
H
V9L
M
R21P
L
K36H
L
D18H
H

Task: Input `T10H` ; output its category
Result: M
